target: LmG6PDH (Leuconostoc mesenteroides glucose-6-phosphate dehydrogenase) (Leuconostoc mesenteroides, UniProt P11411); construct: purchased Worthington Biochemical Corporation; assay: Confirmatory assay on the LmG6PDH enzyme-coupled system; format: biochemical; conditions: percentage of inhibition at 20 µM compound in comparison to controls; N = 4; read-out: LmG6PDH Inh20
Sequence (P11411 whole entry): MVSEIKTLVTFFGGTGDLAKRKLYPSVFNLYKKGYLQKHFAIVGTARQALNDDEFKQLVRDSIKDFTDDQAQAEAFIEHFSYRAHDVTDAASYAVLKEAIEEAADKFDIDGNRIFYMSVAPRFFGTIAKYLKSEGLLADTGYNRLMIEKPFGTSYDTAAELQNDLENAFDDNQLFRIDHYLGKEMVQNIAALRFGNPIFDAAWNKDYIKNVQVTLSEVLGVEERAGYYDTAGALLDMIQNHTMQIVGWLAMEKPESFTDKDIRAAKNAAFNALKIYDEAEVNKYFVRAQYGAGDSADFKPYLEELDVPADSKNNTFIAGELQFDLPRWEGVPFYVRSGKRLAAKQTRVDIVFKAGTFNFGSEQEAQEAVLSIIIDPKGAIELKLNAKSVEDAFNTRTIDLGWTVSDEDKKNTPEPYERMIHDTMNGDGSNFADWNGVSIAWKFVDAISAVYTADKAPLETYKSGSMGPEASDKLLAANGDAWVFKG
Quantity Kind: inhibition at 20 µM
Report the figure along with its unit, number first.

Data request, read-out inhibition at 20 µM, for O=[N+]([O-])C1=Cc2ccccc2OC1c1ccccc1Cl (stereo not drawn) [Compound 12, 2-(2-Chlorophenyl)-3-nitro-2H -chromene]
8.6%

Data request, read-out inhibition at 20 µM, for COc1ccc(C2Oc3c(cc(Br)cc3OC)C=C2[N+](=O)[O-])cc1OC (stereo not drawn) [Compound 3]
0%

Data request, read-out inhibition at 20 µM, for COc1ccc(C2Oc3ccc(Br)cc3C=C2[N+](=O)[O-])cc1OC (stereo not drawn) [Compound 4]
12.1%

Data request, read-out inhibition at 20 µM, for CCOc1ccc(C2Oc3c(Cl)cc(Cl)cc3C=C2[N+](=O)[O-])cc1OCC (stereo not drawn) [Compound 9]
10.1%

Data request, read-out inhibition at 20 µM, for O=[N+]([O-])C1=Cc2cc(Br)ccc2OC1c1ccccc1Cl (stereo not drawn) [Compound 11]
15%

Data request, read-out inhibition at 20 µM, for O=[N+]([O-])C1=Cc2cc(Br)cc(Br)c2OC1c1c(Cl)cccc1Cl (stereo not drawn) [Compound 7]
0%

Data request, read-out inhibition at 20 µM, for CCOc1ccc(C2Oc3ccc(Br)cc3C=C2[N+](=O)[O-])cc1OC (stereo not drawn) [Compound 1]
15.4%

Data request, read-out inhibition at 20 µM, for CCOc1ccc(C2Oc3ccc(Br)cc3C=C2[N+](=O)[O-])cc1OCC (stereo not drawn) [Compound 2]
0%

Data request, read-out inhibition at 20 µM, for O=[N+]([O-])C1=Cc2ccccc2OC1c1c(Cl)cccc1Cl (stereo not drawn) [Compound 13]
0%

Data request, read-out inhibition at 20 µM, for CCOc1ccc(C2Oc3c(cc(Br)cc3OC)C=C2[N+](=O)[O-])cc1OC (stereo not drawn) [Compound 8]
0%

Data request, read-out inhibition at 20 µM, for CCOc1ccc(C2Oc3c(Br)cc(Br)cc3C=C2[N+](=O)[O-])cc1OC (stereo not drawn) [Compound 6]
16.1%

Data request, read-out inhibition at 20 µM, for COc1ccc(C2Oc3c(Br)cc(Br)cc3C=C2[N+](=O)[O-])cc1OC (stereo not drawn) [Compound 5]
0%

Entry source: paper PMC11050443
